target: Beta-lactamase TEM (Escherichia coli) (UniProt P62593); experiment: Antibacterial activity against Escherichia coli expressing TEM1; assay type: functional
value-type: MIC (µg/mL)

[[record]]
substance_smiles = "O=C([O-])C1=CS[C@@H]2/C(=C\\c3cc4n(n3)CCNC4)C(=O)N12.[Na+]"
value_type = "MIC"
observed = 4

[[record]]
substance_smiles = "O=C([O-])C1=CS[C@@H]2/C(=C/c3cn4c(n3)CNCC4)C(=O)N12.[Na+]"
value_type = "MIC"
observed = 2

[[record]]
substance_smiles = "O=C([O-])C1=CS[C@@H]2/C(=C\\c3cc4n(n3)CCSC4)C(=O)N12.[Na+]"
value_type = "MIC"
observed = 4

[[record]]
substance_smiles = "CN1CCn2cc(/C=C3/C(=O)N4C(C(=O)[O-])=CS[C@H]34)nc2C1.[Na+]"
value_type = "MIC"
observed = 16

[[record]]
substance_smiles = "C[C@]1(Cn2ccnn2)[C@H](C(=O)O)N2C(=O)C[C@H]2S1(=O)=O"
value_type = "MIC"
observed = 2

[[record]]
substance_smiles = "O=C([O-])C1=CS[C@@H]2/C(=C\\c3cc4n(n3)CCS(=O)(=O)C4)C(=O)N12.[Na+]"
value_type = "MIC"
observed = 4

[[record]]
substance_smiles = "O=C([O-])C1=CS[C@@H]2/C(=C\\c3cc4c(s3)CCN(Cc3cccnc3)C4)C(=O)N12.[Na+]"
value_type = "MIC"
observed = 32

[[record]]
substance_smiles = "O=C([O-])C1=CS[C@@H]2/C(=C\\c3cn4c(n3)CSCC4)C(=O)N12.[Na+]"
value_type = "MIC"
observed = 8

[[record]]
substance_smiles = "O=C([O-])C1=CS[C@@H]2/C(=C/c3cn4c(n3)CSCC4)C(=O)N12.[Na+]"
value_type = "MIC"
observed = 64

[[record]]
substance_smiles = "O=C([O-])C1=CS[C@@H]2/C(=C\\c3cc4n(n3)CCCC4)C(=O)N12.[Na+]"
value_type = "MIC"
observed = 2

[[record]]
substance_smiles = "O=C([O-])C1=CS[C@@H]2/C(=C\\c3cc4n(n3)CCCO4)C(=O)N12.[Na+]"
value_type = "MIC"
observed = 4

[[record]]
substance_smiles = "O=C([O-])C1=CS[C@@H]2/C(=C\\c3cc4n(n3)CCOC4)C(=O)N12.[Na+]"
value_type = "MIC"
observed = 4

[[record]]
substance_smiles = "O=C([O-])C1=CS[C@@H]2/C(=C/c3cn4c(n3)COCC4)C(=O)N12.[Na+]"
value_type = "MIC"
observed = 2

[[record]]
substance_smiles = "COc1ccc(CN2CCc3sc(/C=C4/C(=O)N5C(C(=O)[O-])=CS[C@H]45)cc3C2)cc1.[Na+]"
value_type = "MIC"
observed = 8


---

test: Inhibition of GC1
value-type: IC50 (nM)

[[record]]
substance_smiles = "O=C([O-])C1=CS[C@@H]2/C(=C/c3cn4c(n3)COCC4)C(=O)N12.[Na+]"
unit_spec = "nM"
observed = 6.2


---

molecular target: Imipenem-hydrolyzing beta-lactamase (Enterobacter cloacae, UniProt P52663); assay: Inhibition of Enterobacter cloacae Imi1
As shown below, each of these compounds has a reported IC50 value.
value-type: IC50 (nM)

[[record]]
substance_smiles = "O=C([O-])C1=CS[C@@H]2/C(=C\\c3cc4n(n3)CCS(=O)(=O)C4)C(=O)N12.[Na+]"
observed = 56

[[record]]
substance_smiles = "O=C([O-])C1=CS[C@@H]2/C(=C\\c3cc4n(n3)CCSC4)C(=O)N12.[Na+]"
observed = 18

[[record]]
substance_smiles = "O=C([O-])C1=CS[C@@H]2/C(=C\\c3cn4c(n3)CSCC4)C(=O)N12.[Na+]"
observed = 2300


These measurements were taken from ChEMBL document CHEMBL1137415.
